Cited source for all entries: PubChem BioAssay (Tox21)

molecular target: Cytochrome P450 2C9 (Homo sapiens); test: Cytochrome P450 Family 2 Subfamily C Member 9 (CYP2C9) small molecule antagonists: luciferase reporter qHTS assay (AID 1671198); conditions: P450-Glo CYP2C9 enzyme assay, luciferin luminescence; series mostly up to 115 µM; also: nearly all actives have a fitted effect of over 50% in size; also: potency is read from the fitted curve at half-maximal effect
Inconclusive results are not listed. Activity calls are given as the source filed them. Calls follow the shape of the dose curve; as a rule, active = well fitted inhibition curve with a large enough effect in the repeat runs; inconclusive = weak or mixed curves; inactive = no such curve, though single readings can be large or run the other way.
measured_quantity: Potency

>>> test_result("CCOC(=O)[C@H](CCc1ccccc1)N[C@H]1CCc2ccccc2N(CC(=O)O)C1=O")
"8.71 µM (active)"
>>> test_result("O=C1[C@H](CC[C@H](O)c2ccc(F)cc2)[C@@H](c2ccc(O)cc2)N1c1ccc(F)cc1")
"8.71 µM (active)"
>>> test_result("Cc1cc(C)c(S(=O)(=O)O)cc1N=Nc1cc(S(=O)(=O)O)c2ccccc2c1O")
"63.3 µM (active)"
>>> test_result("CCN1CCC[C@H]1CNC(=O)c1c(OC)ccc(Br)c1OC")
"inactive"
>>> test_result("Cc1ccc(C(=O)C(C)CN2CCCCC2)cc1 (centres undefined)")
"inactive"
>>> test_result("C=CC(=O)OCCOC(=O)CCC(=O)O")
"inactive"
>>> test_result("CN(C)CC[C@@H](c1ccc(Br)cc1)c1ccccn1")
"inactive"
>>> test_result("Cc1ccc(C(C)c2ccc(C)c(C)c2)cc1C")
"11.2 µM (active)"
>>> test_result("CCCCCCCCC(CO)CCCCCC (centres undefined)")
"25.2 µM (active)"
>>> test_result("CC(=O)N(O)CCCCCNC(=O)CCC(=O)N(O)CCCCCNC(=O)CCC(=O)N(O)CCCCCN")
"inactive"
>>> test_result("CC(C)CCCCCCOC(=O)c1ccc(C(=O)OCCCCCCC(C)C)c(C(=O)OCCCCCCC(C)C)c1")
"71 µM (active)"
>>> test_result("Nc1ccc(C(=O)Nc2ccccc2N)cc1")
"inactive"
>>> test_result("CCCCOC(O)CC (centres undefined)")
"inactive"
>>> test_result("CC(C)c1cccc(C(C)C)c1NC(=O)NS(=O)(=O)c1cc(C(C)(C)O)co1")
"35.6 µM (active)"
>>> test_result("CCOC(=O)C1=C(C)NC(C)=C(C(=O)OC)C1c1cccc([N+](=O)[O-])c1 (centres undefined)")
"0.977 µM (active)"
>>> test_result("CCCCCCCCCCCCCCC1CO1 (centres undefined)")
"inactive"
>>> test_result("CCc1nn(C2CCCCC2)c2cc(C3(C#N)CCC(C(=O)O)CC3)ccc12 (centres undefined)")
"20 µM (active)"
>>> test_result("O=C1CCCCCO1")
"inactive"
>>> test_result("CN1CCC(=C2c3ccccc3C=Cc3ccccc32)CC1")
"inactive"
>>> test_result("O=C(CC(=O)c1ccccc1)c1ccccc1")
"38.2 µM (active)"
>>> test_result("CCCC(=O)OCC")
"12.6 µM (active)"
>>> test_result("Nc1nc(N)c2nc(CNc3ccc(C(=O)N[C@@H](CCC(=O)O)C(=O)O)cc3)cnc2n1")
"inactive"
>>> test_result("O=C(/C=C/c1ccc(O)c(O)c1)O[C@@H]1C[C@](O)(C(=O)O)C[C@@H](O)[C@H]1O")
"inactive"
>>> test_result("CCCCCOC(=O)c1ccc(O)cc1")
"36 µM (active)"
